Biological target: CDK12 (aa686-1082)/cyclinK complex (Homo sapiens)
Construct: A CDK12 (aa686-1082)/cyclinK complex (50 nM)
Sequence (Q9NYV4 686-1082, species assumed): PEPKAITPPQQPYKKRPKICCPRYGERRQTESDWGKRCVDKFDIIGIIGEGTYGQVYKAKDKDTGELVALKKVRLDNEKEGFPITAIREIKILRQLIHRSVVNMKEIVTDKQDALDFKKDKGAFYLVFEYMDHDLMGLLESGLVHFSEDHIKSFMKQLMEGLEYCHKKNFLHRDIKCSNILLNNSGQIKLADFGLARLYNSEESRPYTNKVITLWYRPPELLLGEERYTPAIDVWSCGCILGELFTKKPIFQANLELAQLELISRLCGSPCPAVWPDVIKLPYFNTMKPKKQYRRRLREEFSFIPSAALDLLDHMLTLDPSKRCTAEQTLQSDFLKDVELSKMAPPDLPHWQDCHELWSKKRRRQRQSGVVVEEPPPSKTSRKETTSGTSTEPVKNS
Sequence (O75909 whole entry partner, species assumed, the tested form may be a part): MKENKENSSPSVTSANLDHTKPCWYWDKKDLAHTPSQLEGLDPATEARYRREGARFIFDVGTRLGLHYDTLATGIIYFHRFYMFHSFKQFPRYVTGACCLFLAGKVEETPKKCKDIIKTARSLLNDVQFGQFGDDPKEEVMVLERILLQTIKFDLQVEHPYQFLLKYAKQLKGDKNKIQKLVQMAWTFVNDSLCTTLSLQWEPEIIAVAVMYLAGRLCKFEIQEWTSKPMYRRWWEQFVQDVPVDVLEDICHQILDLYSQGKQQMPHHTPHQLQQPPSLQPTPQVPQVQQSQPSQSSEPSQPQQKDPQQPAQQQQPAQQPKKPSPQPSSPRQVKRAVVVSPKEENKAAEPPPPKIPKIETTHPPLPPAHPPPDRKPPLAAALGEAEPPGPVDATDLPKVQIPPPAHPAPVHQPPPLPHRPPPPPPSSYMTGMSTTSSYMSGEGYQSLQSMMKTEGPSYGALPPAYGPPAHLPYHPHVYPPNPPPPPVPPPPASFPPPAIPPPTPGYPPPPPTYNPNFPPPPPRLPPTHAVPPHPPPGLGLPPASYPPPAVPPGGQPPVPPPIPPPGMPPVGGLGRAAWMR
Assay: In-vitro enzymatic inhibitory activity testing, CDK12 inhibition assay (Caliper EZ Reader II)
Format: biochemical
Conditions: CDK12/cyclinK 50 nM, 180 min at 27° C.; read-out: CDK12 IC50
pIC50: −log10 of the molar value.
Recorded pIC50, one value per entry.

# annotated cases, reported pIC50 shown
compound: CP(C)(=O)c1cccc2c(-c3nc(N[C@H]4CC[C@H](N)C4)ncc3C(F)(F)F)c[nH]c12
target_desc: CDK12 (aa686-1082)/cyclinK complex (Homo sapiens)
pIC50: 5.30 to 6.70
//
compound: CC1(C)COCC(Nc2ncc(C(F)(F)F)c(-c3c[nH]c4c(P(C)(C)=O)cccc34)n2)CN1 (single isomer, unassigned) [Compound 92]
target_desc: CDK12 (aa686-1082)/cyclinK complex (Homo sapiens)
pIC50: 4.30 to 5.30
//
compound: C[C@H]1COCCN1c1ccc2c(-c3nc(N[C@@H]4CCC45CNC5)ncc3C(F)(F)F)c[nH]c2n1
target_desc: CDK12 (aa686-1082)/cyclinK complex (Homo sapiens)
pIC50: 4.30 to 5.30

Lab book: pIC50 of CC(O)[C@H](C)Nc1ncc(C(F)(F)F)c(-c2c[nH]c3c(P(C)(C)=O)cccc23)n1 (single isomer, unassigned) [Compound 129] noted as < 4.30

Lab book: pIC50 of C[C@@H](CO)Nc1ncc(C(F)(F)F)c(-c2c[nH]c3c(P(C)(C)=O)cc(F)cc23)n1 noted as < 4.30

Lab book: pIC50 of CP(C)(=O)c1cccc2c(-c3nc(NCC(O)C4CCC4)ncc3C(F)(F)F)c[nH]c12 (single isomer, unassigned) [Compound 140] noted as < 4.30

---

Target: CDK2/cyclinE1 complex (Homo sapiens)
Experiment: In-vitro enzymatic inhibitory activity testing, CDK2 inhibition assay (Caliper EZ Reader II)
Details: CDK2/cyclinE1 0.5 nM, 180 min at 27° C.
measured_endpoint: IC50

# annotated cases, reported IC50 shown
compound: CC1([C@@H](CO)Nc2ncc(C(F)(F)F)c(-c3c[nH]c4c(P(C)(C)=O)cccc34)n2)CC1 [Compound 112]
IC50: 5 to 50 µM

compound: C[C@@H](CO)Nc1ncc(Cl)c(-c2c[nH]c3c(P(C)(C)=O)cccc23)n1 [Compound 103]
IC50: 0.2 to 5 µM

compound: CP(C)(=O)c1cccc2c(-c3nc(N[C@H]4CCCC[C@@H]4O)ncc3C(F)(F)F)c[nH]c12 [Compound 165]
IC50: 5 to 50 µM

compound: CP(C)(=O)c1cccc2c(-c3nc(NC45CC(O)(C4)C5)ncc3C(F)(F)F)c[nH]c12 [Compound 174]
IC50: 0.2 to 5 µM

Lab book: IC50 of CC[C@@H](CO)Nc1ncc(C(F)(F)F)c(-c2c[nH]c3c(P(C)(C)=O)cccc23)n1 [Compound 88] noted as 0.2 to 5 µM

Lab book: IC50 of C[C@H]1COCCN1c1ccc2c(-c3nc(N[C@H]4CC[C@@H](N)C4)ncc3C(F)(F)F)c[nH]c2n1 [Compound 68] noted as 5 to 50 µM

Lab book: IC50 of CP(C)(=O)c1c(C#N)ccc2c(-c3nc(N[C@@H]4CCC45CNC5)ncc3C(F)(F)F)c[nH]c12 [Compound 77] noted as > 50 µM
